Here the recorded cytotoxicity at 10 µM is given for each entry.
- TEST METHOD NOTES: Toxicity liver stage against HepG2, at 10uM
- Assay type: cell-based
- Parameters: test concentration 10 uM, cell line HepG2-A16-CD81EGFP
- ASSAY CONTEXT: human, HepG2-A16-CD81EGFP cells; read-out: INHIBITION
Hi! Could you send only the number? It should be in %, unit omitted.

Ask: If you can, please state the reported cytotoxicity at 10 µM value of CCNC(=O)N1CCc2ccc(NC(=O)C(C)c3ccsc3)cc21 (stereo unspecified) .
Result: -3.41

Ask: Value lookup for cytotoxicity at 10 µM; key = c1cc(-c2noc(CN3CCn4c(nnc4C4CC4)C3)n2)cs1
Result: -7.07

Ask: For the compound shown here, COCCNc1nc(-c2ccc(S(=O)(=O)N3CCCCCC3)cc2)cs1 , give the reported cytotoxicity at 10 µM.
Result: -32.7

Ask: Reported cytotoxicity at 10 µM, compound CCC(CC)NC(=O)CN1CCN(C(=O)N(C)C)CC1 : ____
Result: -3.7

Ask: Find the recorded cytotoxicity at 10 µM belonging to CNc1ncc(C(=O)N[C@H]2CN(CCCSC)C[C@@H]2C2CC2)cn1 and report it.
Result: 1.33

Ask: Give its cytotoxicity at 10 µM value. Item: COc1cc(C(=O)NC2COc3ccccc3C2)ccc1OCC(N)=O (stereo unspecified)
Result: -22.8

Ask: Name the recorded cytotoxicity at 10 µM for CCc1nnc(NC(=O)c2ccc(C3CCCN3CC(C)C)s2)s1 (stereo unspecified) .
Result: 2.14

Ask: cytotoxicity at 10 µM for CCc1cnc(N2CCN(Cc3ccncc3)CC2)s1 ?
Result: 40.8

Ask: I would be grateful if you could share the reported cytotoxicity at 10 µM for Fc1cccc(CN2C[C@@H]3COC[C@]3(COCc3ccncc3)C2)c1 .
Result: -61.1

Ask: Quick one: cytotoxicity at 10 µM of Cn1ccc(-c2cc(C(=O)N3CCCCC3)c3ccccn23)n1 ?
Result: -45.7

Ask: cytotoxicity at 10 µM for Cc1nc(C)c(CN2CCC(N(C)Cc3nnc(C4CC4)o3)C2)s1 (stereo unspecified) ?
Result: -4.18

Ask: Endpoint output: cytotoxicity at 10 µM of CN1CCN(CCn2cnc3c(F)cccc3c2=O)CC1 . Value?
Result: -1.67

Ask: Consider the compound shown here: Cc1cnc(CNc2c(F)cccc2-n2cccn2)o1 What is its recorded cytotoxicity at 10 µM?
Result: 15.6

Ask: Look up cytotoxicity at 10 µM: Cc1nccn1[C@@H]1CC[C@@H](NC(=O)CCOc2ccccc2)[C@H]1O
Result: -12.7

Ask: # cytotoxicity at 10 µM lookup, item CCCN1CCC(c2nc3ccc(-c4cccc(OC)c4)cn3n2)CC1
Result: -113

Ask: # input compound: COCCC1COC2(CCN(C(=O)c3ccccc3)CC2)C1 (stereo unspecified) ; wanted: its cytotoxicity at 10 µM
Result: -87.5

###

# cytotoxicity at 10 µM per record follows
- TEST METHOD NOTES: Toxicity liver stage against HepG2, at 10uM
- Type: cell-based
- Parameters: test concentration 10 uM, cell line HepG2-A16-CD81EGFP
- ASSAY CONTEXT: human, HepG2-A16-CD81EGFP cells; read-out: INHIBITION
Quick note: unit goes after the number.

Past entries and their recorded results:
{"COMPOUND": "CN(C(=O)Cn1nc(-c2ccc(F)cc2)oc1=O)C1CCS(=O)(=O)C1 (stereo unspecified)", "cytotoxicity at 10 µM": "10.7%"}
{"COMPOUND": "O=C(c1ccncn1)N1C[C@@H]2CN(Cc3cccnc3)CCO[C@@H]2C1", "cytotoxicity at 10 µM": "7.61%"}
{"COMPOUND": "O=C(N1CCC(Nc2cccnn2)CC1)C1(c2ccc(F)cc2)CC1", "cytotoxicity at 10 µM": "-12.8%"}
{"COMPOUND": "CN(C)C(=O)c1cccnc1N1CCOC(c2ccc(Cl)cc2)C1 (stereo unspecified)", "cytotoxicity at 10 µM": "9.39%"}

Ask: Which value of cytotoxicity at 10 µM has been reported for Cc1cc(C2CCC2)nc(NCC(C)(C)N2CCOCC2)n1 in the records?
Result: 11.5%

Ask: cytotoxicity at 10 µM for CC(C)OCc1ncn2c1CN(CCO)CCC2 ?
Result: 8.37%
